Molecular target: Methionine aminopeptidase 2 (Homo sapiens, UniProt P50579)
Sequence (P50579 whole entry): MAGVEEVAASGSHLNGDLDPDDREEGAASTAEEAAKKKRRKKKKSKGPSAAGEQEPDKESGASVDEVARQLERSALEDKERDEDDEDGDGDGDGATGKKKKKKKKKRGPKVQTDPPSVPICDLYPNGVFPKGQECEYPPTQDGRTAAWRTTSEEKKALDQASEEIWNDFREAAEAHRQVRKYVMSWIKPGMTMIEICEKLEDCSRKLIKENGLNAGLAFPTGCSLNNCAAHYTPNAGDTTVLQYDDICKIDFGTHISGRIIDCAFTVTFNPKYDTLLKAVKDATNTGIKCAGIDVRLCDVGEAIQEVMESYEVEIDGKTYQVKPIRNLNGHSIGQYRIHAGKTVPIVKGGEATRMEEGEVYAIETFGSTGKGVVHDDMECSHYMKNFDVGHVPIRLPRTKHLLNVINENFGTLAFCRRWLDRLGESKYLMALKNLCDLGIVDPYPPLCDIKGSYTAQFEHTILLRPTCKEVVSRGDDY
Assay: In vitro inhibitory activity against purified recombinant human Methionine Aminopeptidase 2 (MetAP2)
Quantity measured: pIC50
Reminder that pIC50 is minus the log10 of a molar concentration.

Query: pIC50; subject: CO[C@@H]1[C@H](OC(=O)/C=C/C=C/C=C/C=C/C(=O)O)CC[C@]2(CO2)[C@H]1[C@@]1(C)O[C@@H]1CC=C(C)C 9.00
